- assay info: inhibitors of TNFa-induced NFkB p65 translocation, primary screen, imaging, HUVEC, MLSMR starter and 10KST1 sets (AID 438);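 further: compound added about 3h40 before a 20 min TNFalpha stimulation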
- run parameters: HUVEC TNFa-induced p65 nuclear translocation; measured here: nuclei count (cytotoxicity indicator), at 2.08 µM
Give cell count for every item shown.
Numbers only.

compound	reported metric	recorded measurement
COc1ccc(OC)c(C(=O)COC(=O)c2cc(C)oc2C)c1	cell count	747
Cc1oc(-c2ccccc2F)nc1CS(=O)(=O)CC(=O)N1CCN(Cc2ccccc2)CC1	cell count	853
N#Cc1ccccc1Cn1c(=O)n(Cc2ccc(C(=O)NCc3ccco3)cc2)c(=O)c2ccccc21	cell count	689
O=C1c2ccccc2C(=O)N1CCCCN1CCN(CCCCN2C(=O)c3ccccc3C2=O)CC1	cell count	401
CCOc1ccccc1N(CC(=O)N1CCOCC1)S(=O)(=O)c1ccccc1	cell count	338
CCOc1ccc(CNC(=O)C2CCCN(S(C)(=O)=O)C2)cc1OC (centres undefined)	cell count	664
Cc1cc(C(=O)Nc2nc3c(s2)CCCC3)cs1	cell count	347
CCN1CCN(Cc2nc3c(c(=O)n(C)c(=O)n3C)n2CC(=O)c2ccccc2)CC1	cell count	465

State the recorded cell count for every item in the following list.
1. Cc1cc(C)nc(NC2=NCC(=O)N2c2ccccc2Br)n1
2. N#Cc1c(-c2ccccc2)nc(N2CCCCCC2)[nH]c1=O
3. COc1ccccc1NC(=O)c1cc2n(n1)C(C(F)(F)F)CC(c1ccc3c(c1)OCO3)N2 (centres undefined)
4. COc1ccc(N=c2scc(-c3ccc(S(=O)(=O)N4CCOCC4)cc3)n2CCCO)cc1

899
379
479
974

State the recorded cell count for every item in the following list.
1. Fc1ccc(Cn2nnc(-c3ccc(CN4CCOCC4)cc3)n2)cc1
2. COc1ccc(S(=O)(=O)CCC(=O)O)cc1
3. COc1cc2c(C#N)c(N3CCOCC3)nc(N)c2c(N)n1

299
756
694

---

- assay info: inhibitors of TNFa-induced NFkB p65 translocation, primary screen, imaging, HUVEC, MLSMR starter and 10KST1 sets (AID 438);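 further: compound added about 3h40 before a 20 min TNFalpha stimulation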;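 on inhibition: signal is the nuclear over cytoplasmic p65 intensity ratio per well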
- run parameters: HUVEC TNFa-induced p65 nuclear translocation; at 2 µM, stronger effect = higher value, 0% TNFa-plus-vehicle, 100% no-TNFa wells
reported metric: inhibition (%)
Give bare numbers, in %.

As a guide, the following entries are already answered.
molecule	reported metric	recorded measurement
O=C(Nc1nc(-c2ccccn2)cs1)C1CC1	inhibition	-3.3
Cn1c(SCC(=O)Nc2cccc3ccccc23)nc(O)cc1=O	inhibition	-0.9
Cc1cccc(NC(=O)CC(C)(C)C)c1	inhibition	-6.6
CCCCn1nnc(NC(=O)Cc2ccc(Cl)cc2)n1	inhibition	7.7
c1ccc(CC2CCN(c3nc4ccccc4n4nnnc34)CC2)cc1	inhibition	-13.8

State the recorded inhibition for every item in the following list.
1. O=C(CCn1c(=O)oc2ccccc21)N1CCN(c2ccccc2Cl)CC1
2. COc1ccc(NC(=O)C(C)NS(=O)(=O)c2ccc(NC(C)=O)cc2)cc1Cl (configuration not stated)
3. O=C(c1cc(C2CC2)on1)N1CCN(C(c2ccccc2)c2ccccc2)CC1
4. COc1ccc(-c2noc(CCN3C(=O)c4ccccc4C3=O)n2)cc1OC
5. CC(C)Cc1cc(C(=O)Nc2c(F)cc(F)cc2Br)no1
6. COc1cccc(Oc2cnc(N)nc2-c2ccc(OC)cc2O)c1
7. CC(=O)CCc1c(C)[nH]c2ccccc2c1=O

[3.9, 2.8, -3.5, 7.6, 7.4, -8.2, 9.1]

---

- tested system: Voltage-gated potassium channel subunit beta-2 (Rattus norvegicus) (UniProt P62483)
- Sequence (P62483 whole entry, looked up): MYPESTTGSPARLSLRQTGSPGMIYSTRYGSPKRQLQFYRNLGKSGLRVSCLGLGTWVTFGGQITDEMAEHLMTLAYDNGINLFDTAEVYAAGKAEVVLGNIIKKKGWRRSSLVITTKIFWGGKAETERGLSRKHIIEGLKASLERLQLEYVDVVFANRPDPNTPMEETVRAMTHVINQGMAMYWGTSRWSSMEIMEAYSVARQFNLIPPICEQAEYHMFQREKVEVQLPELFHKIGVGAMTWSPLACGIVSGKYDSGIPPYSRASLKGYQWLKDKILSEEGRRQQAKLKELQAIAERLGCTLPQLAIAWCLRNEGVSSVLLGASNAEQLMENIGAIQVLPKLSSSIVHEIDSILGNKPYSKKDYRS
- assay info: inhibitors of rat Kvbeta2 reductase activity – biochemical, NADPH fluorescence, primary screen (AID 622);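 further: slope of raw intensity against log time taken from 70 to 1610 s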
- run parameters: recombinant KvBeta, 4-cyanobenzaldehyde reduction, at 10 µM, stronger effect = higher value
Is fluorescence slope at least -0.5? Then yes. If not, no.

compound	tested system	qualitative label
C=CCn1c(COc2ccccc2)nnc1SCC(=O)C(C)(C)C	Voltage-gated potassium channel subunit beta-2 (Rattus norvegicus) (UniProt P62483)	yes

Check the entry `CSc1nnc(-c2ccc(NC(=O)CCc3ccccc3)cc2)n1C` : does fluorescence slope equal or exceed -0.5?
yes

Would you kindly repeat that for `CC(=O)N(C)C1(c2nnnn2CCOC(=O)Nc2ccc(Cl)cc2)CCCCC1` ?
yes

Would you kindly repeat that for `CCOC(=O)N1CCC(NC(=O)C2CCN(S(=O)(=O)c3cccc4cccnc34)CC2)CC1` ?
no

Would you kindly repeat that for `CN1CCN(C(=O)C2CCN(S(=O)(=O)c3ccc4c(c3)oc(=O)n4C)CC2)CC1` ?
no

Would you kindly repeat that for Cc1oc(-c2ccc(Cl)cc2)nc1CS(=O)CC(=O)NCCCN(C)C1CCCCC1 (stereo not drawn) ?
no

Would you kindly repeat that for `CCn1c(=S)ccc2ccc(OC)cc21` ?
no

Would you kindly repeat that for `N#CCCCCn1c(-c2cncs2)nc2ccccc21` ?
yes

Would you kindly repeat that for `Clc1ss/c(=N\c2ccccn2)c1Cl` ?
yes

Would you kindly repeat that for `Cc1nnc(SCC(=O)Nc2c(Cl)cccc2Cl)[nH]c1=O` ?
no

Would you kindly repeat that for O=C(Nc1ccccc1C(=O)N1CCOCC1)C1COc2ccccc2O1 (stereo not drawn) ?
yes

Would you kindly repeat that for O=C(O)C1CC=CCC1C(=O)Nc1cccc(C(=O)N2CCCCC2)c1 (stereo not drawn) ?
yes

Would you kindly repeat that for COc1cc(C)nc(N2CCCC(C(=O)Nc3cccc(Cl)c3Cl)C2)n1 (stereo not drawn) ?
yes

Would you kindly repeat that for `CCOc1ccccc1NC(=O)CCN1CCN(S(=O)(=O)c2ccc(Br)cc2)CC1` ?
no

Would you kindly repeat that for C=CCn1c(SCC2=C(C(=O)OCC)C(C)NC(=O)N2)nnc1C1CCCCC1 (stereo not drawn) ?
yes

Would you kindly repeat that for `COCCn1c(COc2ccc(Cl)cc2)nnc1SCC(N)=O` ?
no

Would you kindly repeat that for CCOC(=O)c1ccc(NC(=O)Cn2cc3c(n2)CCC(C)C3)cc1 (stereo not drawn) ?
yes

Would you kindly repeat that for COc1cccc(C2C3=C(N=C4SCC(=O)N42)c2ccccc2CC3)c1OC (stereo not drawn) ?
yes

Would you kindly repeat that for Cc1ccc(S(=O)(=O)N2C(=O)CCC2C(=O)Nc2ccc3c(c2)OCCO3)cc1 (stereo not drawn) ?
yes

---

- tested system: Alpha-2C adrenergic receptor (Homo sapiens) (UniProt P18825)
- Sequence (P18825 whole entry, looked up): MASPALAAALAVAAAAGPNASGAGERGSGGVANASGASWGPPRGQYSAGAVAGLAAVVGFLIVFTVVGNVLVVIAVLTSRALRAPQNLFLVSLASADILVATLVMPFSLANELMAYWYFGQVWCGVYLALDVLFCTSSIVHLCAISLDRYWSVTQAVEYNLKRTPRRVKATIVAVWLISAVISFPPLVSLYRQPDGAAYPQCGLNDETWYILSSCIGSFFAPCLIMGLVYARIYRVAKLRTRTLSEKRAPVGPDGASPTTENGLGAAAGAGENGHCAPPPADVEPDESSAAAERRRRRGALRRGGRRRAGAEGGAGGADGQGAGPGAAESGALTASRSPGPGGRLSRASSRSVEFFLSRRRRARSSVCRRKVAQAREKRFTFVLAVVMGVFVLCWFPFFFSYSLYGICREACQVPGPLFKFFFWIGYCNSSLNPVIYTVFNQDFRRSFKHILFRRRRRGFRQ
- assay info: compounds altering alpha2C-coupled GIRK flux – cell-based, HEK293 alpha2C/GIRK1/2, thallium flux, primary screen (AID 624);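 further: slope of fluorescence ratio to pre-addition baseline per second over 15 to 24 s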
- run parameters: thallium flux BTC fluorescence, at 10 µM, actives lie on both sides
Give slope for every item shown.
Answers are plain numbers.

compound	tested system	slope
Cc1ccc(-c2oc3ccccc3c(=O)c2O)cc1	Alpha-2C adrenergic receptor (Homo sapiens) (UniProt P18825)	0.00718

State the recorded slope for every item in the following list.
1. O=C(O)c1c(Cl)c(Cl)c(Cl)c(Cl)c1C(=O)N1CCOCC1
2. Cc1cc(C)n(S(=O)(=O)c2cc(C(=O)O)c(Cl)cc2Cl)n1
3. Cc1ccc(/C=c2\sc3nc(-c4ccccc4Br)nn3c2=O)o1
4. O=C(OCC(=O)c1ccc[nH]1)c1ccc(S(=O)(=O)N2CCCCC2)cc1

[0.00588, 0.00497, 0.00296, 0.00419]

---

- assay info: endothelial E-selectin expression blockers – imaging, HUVEC, immunofluorescence, MLSMR starter and 10KST1 sets, primary screen (AID 487);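 further: 100% = median nuclei count of all wells on the same plate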
- run parameters: HUVEC TNFalpha-induced E-selectin immunofluorescence imaging, at 2 µM; measured here: cell number, toxicity
reported metric: nuclei count (%)
Give bare numbers, in %.

As a guide, the following entries are already answered.
compound	nuclei count [%]
COc1ccc2nc(N3CCC(C)CC3)c(C#N)cc2c1	66.6
CCOC(=O)CN(C(=O)CSc1nnc(-c2ccncc2)n1CCCN(C)C)c1ccccc1	92.8
O=C(C1CCCCC1)N1CCC(c2nc3c(nnn3Cc3c(F)cccc3Cl)c(=O)[nH]2)CC1	249
O=C(Nc1nc(-c2ccncc2)cs1)C1COc2ccccc2O1 (stereo not given)	119
O=C1C(Cl)=C(N2CCCCC2)C(=O)N1c1ccccc1Cl	126
COc1ccc(CCNC(=O)C2(C)CCC(=O)N2Cc2ccc3c(c2)OCO3)cc1OC (stereo not given)	116
Nc1nnn(Cc2ccccc2)n1	114
Cc1cc(NCCN2CCCCC2)n2c(nc3ccccc32)c1C#N	134
O=C(c1cccc(C(=O)N2CCN(c3ccccc3)CC2)c1)N1CCN(c2ccccc2)CC1	112
O=C(COC(=O)C1CCN(S(=O)(=O)c2cccs2)CC1)c1cc2ccccc2o1	112

State the recorded nuclei count for every item in the following list.
1. COC(=O)c1c(-c2cccs2)csc1NC(=O)CN1CCOCC1
2. Cc1ccc2[nH]c(=O)c(-c3noc(-c4ccncc4)n3)cc2c1
3. O=C(Oc1cccc2cccnc12)c1cccc(-n2cnnn2)c1
4. CCOC(=O)c1cc(C(C)(C)C)oc1CN
5. FC(F)(F)c1cccc(N2CCN(c3nnnn3-c3ccccc3)CC2)c1

[119, 93.8, 93.4, 102, 112]
